Known EC50 of a selection of binders
# Measured On: cyno SIRPα stably expressed on CHOK1 cells (cyno)
# Method: FACS, CHOK1-Cyno SIRPα cells

Binder	Result Units	EC50
025c (antibody, V domains shown) VH: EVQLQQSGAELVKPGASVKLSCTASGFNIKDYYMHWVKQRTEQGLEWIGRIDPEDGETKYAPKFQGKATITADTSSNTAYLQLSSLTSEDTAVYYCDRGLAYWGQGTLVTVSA VL: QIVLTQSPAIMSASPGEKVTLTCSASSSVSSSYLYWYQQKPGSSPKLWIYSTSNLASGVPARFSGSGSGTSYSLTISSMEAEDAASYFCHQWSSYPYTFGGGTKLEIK	nM	0.69
hu1H9G4 (antibody, V domains shown) VH: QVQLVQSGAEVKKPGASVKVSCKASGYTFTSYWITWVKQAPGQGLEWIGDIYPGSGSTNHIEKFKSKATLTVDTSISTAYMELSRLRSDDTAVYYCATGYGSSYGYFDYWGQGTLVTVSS VL: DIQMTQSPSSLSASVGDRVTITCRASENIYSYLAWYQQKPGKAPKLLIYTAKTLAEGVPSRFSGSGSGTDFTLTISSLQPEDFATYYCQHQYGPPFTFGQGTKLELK	nM	0.72
